ASSAY NAME: Cytotoxicity in rat C6 cells assessed as cell viability at 20 uM after 24 hrs by MTT assay
Format: cell-based
DETAILS: read-out: Activity
# note: exactly 90% is not below, so it is Criterion not met; use Criterion met for viability at 24 h, 20 µM strictly under it

Field: example entries. Status: answers known.
- ITEM SMILES: "CC(C)(O)c1ccc2c(c1)CC[C@H]1[C@](C)(C(=O)O)CCC[C@]21C"
  CLASS NAME: "Criterion not met"
- ITEM SMILES: "CC(C)[C@]1(O)C=C2C(=O)C[C@@H]3[C@](C)(CCC[C@@]3(C)C(=O)O)[C@H]2CC1"
  CLASS NAME: "Criterion not met"
- ITEM SMILES: "CC(C)c1ccc2c(c1)[C@H](O)C[C@H]1[C@](C)(COC(=O)CCC(=O)O)CCC[C@]21C"
  CLASS NAME: "Criterion not met"
- ITEM SMILES: "CO[C@@]1(C(C)C)C=C2[C@H](O)C[C@@H]3[C@](C)(CCC[C@@]3(C)C(=O)O)[C@H]2CC1"
  CLASS NAME: "Criterion met"

Okay, next one:
[ask] Does the reported viability at 24 h, 20 µM of the following molecule sit strictly below 90%? `CC(C)c1ccc2c(c1)[C@H](O)C[C@H]1[C@](C)(C(=O)O)CCC[C@]21C`
[reply] Criterion not met

* * *

ASSAY NAME: Cytotoxicity in human SKOV3 cells by SRB assay
Type: functional, cell-based
DETAILS: SK-OV-3
pIC50: −log10 of the molar value.
The entries below come with measured pIC50 values attached.

- ITEM SMILES: "CC(C)[C@@]12CC[C@@H]3[C@@]4(C)CCC[C@@](C)(C(=O)O)[C@@H]4CC(=O)[C@]3(O)[C@@H]1O2"
  pIC50: "< 5.00"
- ITEM SMILES: "CO[C@H]1C(=O)C2=C[C@@](O)(C(C)C)CC[C@@H]2[C@@]2(C)CCC[C@@](C)(C(=O)O)[C@H]12"
  pIC50: "< 5.00"
- ITEM SMILES: "CC(C)[C@]12O[C@H]1CC1=C(CC[C@H]3[C@](C)(C(=O)O)CCC[C@]13C)[C@H]2O"
  pIC50: "< 5.00"
- ITEM SMILES: "CO[C@@]1(C(C)C)C=C2[C@H](O)C[C@@H]3[C@](C)(CCC[C@@]3(C)C(=O)O)[C@H]2CC1"
  pIC50: "< 5.00"
- ITEM SMILES: "CC(C)[C@@]12C=C3[C@H](O)C[C@H]4[C@](C)(C(=O)O)CCC[C@]4(C)[C@]3(CC1)OO2"
  pIC50: "< 5.00"
- ITEM SMILES: "CC(C)C1=C[C@@]2(O)CC[C@@H]3[C@](C)(CCC[C@@]3(C)C(=O)O)[C@H]2CC1=O"
  pIC50: "< 5.00"
- ITEM SMILES: "CC(C)[C@]12O[C@H]1C[C@H]1C(=CC[C@@H]3[C@]1(C)CCC[C@@]3(C)C(=O)O)[C@H]2O"
  pIC50: "< 5.00"
- ITEM SMILES: "CC(C)c1ccc2c(c1)[C@@H](O)C[C@H]1[C@](C)(C(=O)O)CCC[C@]21C"
  pIC50: "< 5.00"

Query molecule follows.
[ask] Requested read-out: pIC50. Entry: `CC(C)[C@]1(O)C=C2C(=O)C[C@@H]3[C@](C)(CCC[C@@]3(C)C(=O)O)[C@H]2CC1`
[reply] < 5.00

* * *

ASSAY NAME: Antiinflammatory activity in mouse BV2 cells assessed as inhibition of LPS-induced NO production after 24 hrs by Griess assay
Type: functional, cell-based
DETAILS: BV-2, 24 h
TEST READOUT: pIC50
pIC50 (log units): -log10 of the concentration in mol/L.

See these solved cases before continuing.
- ITEM SMILES: "CC(C)[C@]12C=C3CC[C@H]4[C@](C)(C(=O)O)CCC[C@]4(C)[C@@]3(CC1)OO2"
  OBS VALUE: 4.24
- ITEM SMILES: "CC(C)C1=C[C@@]2(O)CC[C@@H]3[C@](C)(CCC[C@@]3(C)C(=O)O)[C@H]2CC1=O"
  OBS VALUE: 4.25

[ask] GET /values?readout=pIC50&item= `CC(C)[C@]12C=C3C(=O)C[C@H]4[C@](C)(C(=O)O)CCC[C@]4(C)[C@@]3(CC1)OO2`
[reply] 4.52

* * *

Collected pIC50 values appear next to each entry.
ASSAY NAME: Cytotoxicity in human HCT116 cells by SRB assay
Format: functional, cell-based
DETAILS: HCT-116
pIC50: −log10 of the molar value.

- ITEM SMILES: "CC(C)(O)[C@]12O[C@H]1C[C@H]1C(=CC[C@@H]3[C@]1(C)CCC[C@@]3(C)C(=O)O)[C@H]2O"
  pIC50: "< 5.00"
- ITEM SMILES: "CC(C)(O)[C@]12O[C@H]1C[C@@H]1[C@@]3(C)CCC[C@@](C)(C(=O)O)[C@@H]3CC[C@@]1(O)[C@H]2O"
  pIC50: "< 5.00"
- ITEM SMILES: "CC(C)[C@@]12C=C3[C@H](O)C[C@H]4[C@](C)(C(=O)O)CCC[C@]4(C)[C@]3(CC1)OO2"
  pIC50: "< 5.00"
- ITEM SMILES: "CO[C@]12C(=O)C[C@@H]3[C@](C)(CCC[C@@]3(C)C(=O)O)[C@H]1CC[C@@]1(C(C)C)O[C@@H]21"
  pIC50: "< 5.00"
- ITEM SMILES: "CC(C)c1ccc2c(c1)[C@H](O)C[C@H]1[C@](C)(CO)CCC[C@]21C"
  pIC50: "< 5.00"

[ask] // returns reported pIC50 for input `CC(C)[C@@]12CC[C@@H]3[C@@]4(C)CCC[C@@](C)(C(=O)O)[C@@H]4CC(=O)[C@]3(O)[C@@H]1O2`
[reply] < 5.00

[ask] Could you share which pIC50 value was measured for `CC(C)c1ccc2c(c1)C(=O)C[C@H]1[C@](C)(C(=O)O)CCC[C@]21C` ?
[reply] < 5.00

* * *

ASSAY NAME: Cytotoxicity in rat C6 cells assessed as cell viability at 20 uM after 24 hrs by MTT assay
Type: cell-based
DETAILS: read-out: Activity
TEST READOUT: viability at 24 h, 20 µM (%)
Express the result in % but write the number alone.

Guide cases for viability at 24 h, 20 µM, answers given:
- ITEM SMILES: "CC(C)c1ccc2c(c1)[C@@H](O)C[C@H]1[C@](C)(C(=O)O)CCC[C@]21C"
  viability at 24 h, 20 µM [%]: 96.2
- ITEM SMILES: "CC(C)c1ccc2c(c1)C(=O)C[C@H]1[C@](C)(C(=O)O)CCC[C@]21C"
  viability at 24 h, 20 µM [%]: 104

[ask] Dear colleague, I am looking for the recorded viability at 24 h, 20 µM of the following molecule: `CO[C@H]1C(=O)C2=C[C@@](O)(C(C)C)CC[C@@H]2[C@@]2(C)CCC[C@@](C)(C(=O)O)[C@H]12`
[reply] 96.2

[ask] Endpoint output: viability at 24 h, 20 µM of `CC(C)[C@]12C=C3CC[C@H]4[C@](C)(C(=O)O)CCC[C@]4(C)[C@@]3(CC1)OO2` . Value?
[reply] 109

* * *

ASSAY NAME: Cytotoxicity in human HCT116 cells by SRB assay
Format: functional, cell-based
DETAILS: HCT-116
TEST READOUT: IC50

- MOLECULE: "CC(C)c1ccc2c(c1)CC[C@H]1[C@](C)(C(=O)O)CCC[C@]21C [DEHYDROABIETIC ACID]"
  IC50: "> 10 µM"
- MOLECULE: "CC(C)c1ccc2c(c1)[C@H](O)C[C@H]1[C@](C)(COC(=O)CCC(=O)O)CCC[C@]21C"
  IC50: "> 10 µM"
- MOLECULE: "CO[C@@]1(C(C)C)C=C2C(=O)C[C@@H]3[C@](C)(CCC[C@@]3(C)C(=O)O)[C@H]2CC1"
  IC50: "> 10 µM"

Shifting focus to the molecule that follows.
[ask] Quick check: IC50 of `CC(C)(O)c1ccc2c(c1)CC[C@H]1[C@](C)(C(=O)O)CCC[C@]21C` ?
[reply] > 10 µM

* * *

Here, each record is paired with measured viability at 24 h, 20 µM data.
ASSAY NAME: Cytotoxicity in rat C6 cells assessed as cell viability at 20 uM after 24 hrs by MTT assay
Type: cell-based
DETAILS: read-out: Activity
Please respond with the number in % and leave the unit unwritten.

Consider the reported viability at 24 h, 20 µM for these compounds:
- ITEM SMILES: "CC(C)[C@]12O[C@H]1C[C@H]1C(=CC[C@@H]3[C@]1(C)CCC[C@@]3(C)C(=O)O)[C@H]2O"
  READOUT UNITS: "%"
  OBS VALUE: 73.1
- ITEM SMILES: "CC(C)C1=C[C@@]2(O)CC[C@@H]3[C@](C)(CCC[C@@]3(C)C(=O)O)[C@H]2CC1=O"
  READOUT UNITS: "%"
  OBS VALUE: 91.2
- ITEM SMILES: "CC(C)[C@@]12C=C3[C@H](O)C[C@H]4[C@](C)(C(=O)O)CCC[C@]4(C)[C@]3(CC1)OO2"
  READOUT UNITS: "%"
  OBS VALUE: 127

Then this compound:
[ask] May I ask what viability at 24 h, 20 µM has been recorded for `CC(C)(O)c1ccc2c(c1)C(=O)C[C@H]1[C@](C)(C(=O)O)CCC[C@]21C` ?
[reply] 94.6
